Test system: SK-OV-3 ovarian
PROCEDURE_TEXT: NCI tumour cell line growth inhibition, 48 h; in the data active means GI50 below about 0.43 µM; inactive means the rest
Answer with one of the outcomes given here: active, inactive

Cc1ccn2c3c(c(C(=O)O)c2c1)C(=O)c1ccccc1C3=O inactive
NC(N)=N/N=C(/c1ccccc1)c1ccc(F)cc1 active
CC1(C)N=C(N)N=C(N)N1c1ccc(CCCCc2ccc(S(=O)(=O)F)cc2)cc1 inactive
Nc1n[nH]c2ccc([C@@H]3Nc4ccc5[nH]ncc5c4[C@H]4[C@H]5CCC(C5)[C@H]43)cc12 inactive
C=C1C(=O)O[C@H]2[C@H]1CC/C(CNC(=O)c1c[nH]c3ccc(F)cc13)=C\CC[C@@]1(C)O[C@@H]21 inactive

Consider the record given below.
Record request — test call for "CC(=O)c1ccc(Nc2cc(-c3ccccc3)nc3c(O)cccc23)cc1" inactive
